Origin of measurements: patent US10167261B2

What follows is a collection of IC50 values obtained with PYR1-HAB1 (Arabidopsis thaliana (Mouse-ear cress)).
Sequence (O49686 whole entry, looked up): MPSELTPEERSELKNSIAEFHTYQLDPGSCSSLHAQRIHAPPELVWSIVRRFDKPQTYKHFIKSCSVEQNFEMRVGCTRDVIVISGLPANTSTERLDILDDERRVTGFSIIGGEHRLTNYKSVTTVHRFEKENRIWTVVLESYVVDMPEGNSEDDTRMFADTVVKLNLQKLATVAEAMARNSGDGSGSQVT
Sequence (Q9CAJ0 whole entry partner, looked up): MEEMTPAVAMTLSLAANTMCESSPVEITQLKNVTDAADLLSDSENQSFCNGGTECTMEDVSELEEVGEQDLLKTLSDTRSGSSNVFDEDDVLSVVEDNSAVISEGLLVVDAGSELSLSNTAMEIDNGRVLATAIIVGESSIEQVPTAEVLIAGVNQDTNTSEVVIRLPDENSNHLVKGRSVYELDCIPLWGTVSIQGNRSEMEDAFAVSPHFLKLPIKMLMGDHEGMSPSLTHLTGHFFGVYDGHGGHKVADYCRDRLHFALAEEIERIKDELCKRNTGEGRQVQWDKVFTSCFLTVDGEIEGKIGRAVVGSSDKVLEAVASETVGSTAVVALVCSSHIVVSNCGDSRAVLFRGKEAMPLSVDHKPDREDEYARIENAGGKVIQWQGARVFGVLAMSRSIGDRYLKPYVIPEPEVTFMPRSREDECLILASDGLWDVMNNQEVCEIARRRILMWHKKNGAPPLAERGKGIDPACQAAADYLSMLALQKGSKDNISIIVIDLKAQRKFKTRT
PROPERTY LABEL: IC50 (nM)

In [3]: df
Out[3]:
                                   molecule  property_label  result
0  CCN1C(=O)CC(C)c2cc(NS(=O)(=O)Cc3ccc(C4CC4)cc3)cc(F)c21 (centres unmarked)            IC50      71
1  CCCN1C(=O)CCc2cc(NS(=O)(=O)Cc3ccc(C4CC4)cc3)cc(F)c21            IC50      28
2  CCCN1C(=O)CC(C)c2cc(NS(=O)(=O)Cc3ccc(C4CC4)cc3)ccc21 (centres unmarked)            IC50      82
3  CCCN1C(=O)CCc2cc(NS(=O)(=O)Cc3ccc(C)cc3)ccc21 [Quinabactin, quinabactin, reference compound]            IC50     104
4  CCN1C(=O)CCc2cc(NS(=O)(=O)Cc3ccc(C4CC4)cc3)cc(F)c21            IC50      21
5  CCCN1C(=O)CCc2cc(NS(=O)(=O)Cc3ccc(C4CC4)cc3)cc(Cl)c21            IC50      83
6  CCCN1C(=O)CCc2cc(NS(=O)(=O)Cc3ccc(C4CCCC4)cc3)ccc21            IC50      97
7  CCCN1C(=O)CCc2cc(NS(=O)(=O)Cc3ccc(C4CC4)cc3)ccc21            IC50      51
